# System: VRE 2: VRE ATCC 29212
# procedure_summary: organism not typed
# experimental_context: ATCC 29212, 24 h
Bridge positions count the residues as written; N and C are the ends. Square brackets hold non-standard residues; d marks the D form. Peptide text beside a SMILES is read from it. d(aIle) = CC[C@H](C)[C@@H](N)C(=O)O; dNMeF = CN[C@H](Cc1ccccc1)C(=O)O
experimental_endpoint: MIC (without polysorbate 80) (mg/L)
Dear colleague, please return just the value in mg/L, with no unit written.

Worked examples follow.
CC[C@H](C)[C@H](NC(=O)[C@@H](Cc1ccccc1)NC)C(=O)N[C@@H](CO)C(=O)N[C@H](CCC(N)=O)C(=O)N[C@@H](C(=O)N[C@H](C(=O)N[C@@H](CO)C(=O)N[C@H]1C(=O)N[C@@H](C)C(=O)N[C@@H](CC(C)C)C(=O)N[C@@H]([C@@H](C)CC)C(=O)O[C@H]1C)[C@@H](C)CC)[C@@H](C)CC [Compound 13, Leu10-teixobactin] (H-[dNMeF]IS[dQ][d(aIle)]IS[dT]ALI; ester 8-C)
2
CC[C@H](C)[C@H](NC(=O)[C@@H](Cc1ccccc1)NC)C(=O)N[C@@H](CO)C(=O)N[C@H](CCC(N)=O)C(=O)N[C@@H](C(=O)N[C@H](C(=O)N[C@@H](CO)C(=O)N[C@H]1C(=O)N[C@@H](C)C(=O)N[C@@H](CCCNC(=N)N)C(=O)N[C@@H]([C@@H](C)CC)C(=O)O[C@H]1C)[C@@H](C)CC)[C@@H](C)CC
4
CC[C@H](C)[C@H](NC(=O)[C@@H](Cc1ccccc1)NC)C(=O)N[C@@H](CO)C(=O)N[C@H](CCC(N)=O)C(=O)N[C@@H](C(=O)N[C@H](C(=O)N[C@@H](CO)C(=O)N[C@H]1C(=O)N[C@@H](C)C(=O)N[C@@H](C(C)C)C(=O)N[C@@H]([C@@H](C)CC)C(=O)O[C@H]1C)[C@@H](C)CC)[C@@H](C)CC [Compound 11, Val10-teixobactin] (H-[dNMeF]IS[dQ][d(aIle)]IS[dT]AVI; ester 8-C)
4
CC[C@H](C)[C@H](NC(=O)[C@@H](Cc1ccccc1)NC)C(=O)N[C@@H](CO)C(=O)N[C@H](CCC(N)=O)C(=O)N[C@@H](C(=O)N[C@H](C(=O)N[C@@H](CO)C(=O)N[C@H]1C(=O)N[C@@H](C)C(=O)N[C@@H](C)C(=O)N[C@@H]([C@@H](C)CC)C(=O)O[C@H]1C)[C@@H](C)CC)[C@@H](C)CC [Compound 8, Ala10-teixobactin] (H-[dNMeF]IS[dQ][d(aIle)]IS[dT]AAI; ester 8-C)
8

What value of MIC (without polysorbate 80) has been reported for the following compound? CC[C@H](C)[C@@H]1NC(=O)[C@H](C)NC(=O)[C@H](NC(=O)[C@H](CO)NC(=O)[C@@H](NC(=O)[C@H](NC(=O)[C@@H](CCC(N)=O)NC(=O)[C@H](CO)NC(=O)[C@@H](NC(=O)[C@@H](Cc2ccccc2)NC)[C@@H](C)CC)[C@@H](C)CC)[C@@H](C)CC)[C@H](C)OC(=O)[C@H]([C@@H](C)CC)NC1=O [Compound 12, Ile10-teixobactin] (H-[dNMeF]IS[dQ][d(aIle)]IS[dT]AII; ester 8-C)
1

Reference for the values: paper PMC5855875
